target: T1, full-length human SIRPαV2 (CAA71403.1) on cells (human, UniProt P78324 31-504); experiment: flow cytometry, CHO-K1 cells
T1 construct: one molecule for CHO-K1 and Expi-CHO transfectants (CAA71403.1) and for endogenous V2 on THP-1 cells and on CD14+ monocytes of V2/V2 donors; also called CHO-hSIRPαV2; αV2 WT
T1 sequence (P78324 other isoform, or with tags, fused parts or gaps): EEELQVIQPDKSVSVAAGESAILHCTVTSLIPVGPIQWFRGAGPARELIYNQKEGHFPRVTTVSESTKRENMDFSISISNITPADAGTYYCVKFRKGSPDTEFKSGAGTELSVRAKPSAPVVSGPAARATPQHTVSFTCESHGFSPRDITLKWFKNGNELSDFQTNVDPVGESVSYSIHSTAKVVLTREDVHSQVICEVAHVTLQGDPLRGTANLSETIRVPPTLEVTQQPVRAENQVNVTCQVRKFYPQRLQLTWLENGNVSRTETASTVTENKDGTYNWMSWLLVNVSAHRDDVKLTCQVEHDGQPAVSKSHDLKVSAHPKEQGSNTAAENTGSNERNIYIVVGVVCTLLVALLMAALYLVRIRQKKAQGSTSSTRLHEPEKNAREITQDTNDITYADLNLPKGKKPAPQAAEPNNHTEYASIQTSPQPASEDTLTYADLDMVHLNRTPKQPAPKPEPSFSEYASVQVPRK
MEASURED METRIC: pEC50
// field semantics: pEC50 = negative decimal log of concentration (mol/L)

- BINDER: "Anti-SIRPα antibody KWAR23 (antibody, V domains shown) VH: EVQLQQSGAELVKPGASVKLSCTASGFNIKDYYIHWVQQRTEQGLEWIGRIDPEDGETKYAPKFQDKATITADTSSNTAYLHLSSLTSEDTAVYYCARWGAYWGQGTLVTVSS VL: QIVLTQSPAIMSASPGEKVTLTCSASSSVSSSYLYWYQQKPGSSPKLWIYSTSNLASGVPARFSGSGSGTSYSLTISSMEAEDAASYFCHQWSSYPRTFGAGTKLELK"
  pEC50: 9.30

Just so you know, measured pEC50 for Antibody C (antibody, human IgG1, kappa, L234A L235A, V domains shown) VH: EVQLVESGGGLVQPGGSLRLSCAASGFTFSSYDMHWVRQATGKGLEWVSVIGIAGDTYYPGSVKGRFTISRENAKNSLYLQMNSLRVGDTAVYYCARGGSWDDAFDIWGQGTMVTVSS VL: DIQMTQSPSSLSASIGDKVTITCRASQDINNYLAWFQQKPGKAPKSLIYTASSLQSGVPSKFSGSGSGTDFTLTISSLQPEDFATYYCQQYVSYPYTFGQGTKLEIKR came out at 9.30

Just so you know, measured pEC50 for Antibody B (antibody, human IgG1, kappa, L234A L235A, V domains shown) VH: QVQLVQSGAEVKKPGASVKVSCKASGYTFTGNYMHWVRQAPGQGLEWMGWINPNSGGTNYAQKFQGRVTMTRDTSISTAYMELSRLRSDDTAVYYCVSGSGWYENYYYYGMDVWGQGTTVTVSS VL: DIQMTQSPSSVSASVGDRVTITCRASQGISSWLAWYQQKPGKAPKLLIYAESSLQSGVPSRFSGSGSGTDFTLTISSLQPEDFATYYCQQANSFPLTFGGGTKVEIKR came out at 7.85
